// provenance: patent US20230114241A1

Target: human sphingosine-1-phosphate receptor 1 (S1P1) (Homo sapiens)
Assay: β-Arrestin2 recruitment assay (PathHunter), S1P1 CHO-K1 cells
Type: cell-based
Sequence (P21453 whole entry): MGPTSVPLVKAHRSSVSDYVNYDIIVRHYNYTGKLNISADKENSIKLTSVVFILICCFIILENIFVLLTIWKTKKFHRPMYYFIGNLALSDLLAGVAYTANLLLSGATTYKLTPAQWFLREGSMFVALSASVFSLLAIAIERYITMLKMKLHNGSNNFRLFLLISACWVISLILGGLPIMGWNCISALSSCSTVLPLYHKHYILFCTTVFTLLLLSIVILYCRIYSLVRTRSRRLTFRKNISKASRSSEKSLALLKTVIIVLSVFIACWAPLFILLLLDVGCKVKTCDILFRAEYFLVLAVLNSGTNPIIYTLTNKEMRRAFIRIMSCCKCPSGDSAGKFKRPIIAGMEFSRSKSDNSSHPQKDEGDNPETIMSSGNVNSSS
Sequence (P32121 whole entry partner): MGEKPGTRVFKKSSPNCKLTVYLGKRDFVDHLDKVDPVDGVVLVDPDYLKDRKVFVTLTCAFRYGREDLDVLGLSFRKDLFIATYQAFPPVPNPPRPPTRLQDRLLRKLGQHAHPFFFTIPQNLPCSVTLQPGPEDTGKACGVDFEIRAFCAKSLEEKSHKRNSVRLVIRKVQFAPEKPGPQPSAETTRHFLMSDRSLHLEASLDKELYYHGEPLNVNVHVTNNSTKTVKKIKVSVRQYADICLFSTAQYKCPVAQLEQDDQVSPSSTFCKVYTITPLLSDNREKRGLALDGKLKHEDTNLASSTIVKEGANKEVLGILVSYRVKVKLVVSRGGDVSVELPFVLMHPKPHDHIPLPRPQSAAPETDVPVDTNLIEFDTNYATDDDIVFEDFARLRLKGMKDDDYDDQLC
pEC50: −log10 of the molar value.

| Given Smiles | System Under Test | pEC50 |
| --- | --- | --- |
| CCOP(=O)(Cc1ccc(-c2noc(-c3ccc4c(c3)nnn4C(C)C)n2)cc1)OCC | human sphingosine-1-phosphate receptor 1 (S1P1) (Homo sapiens) | < 5.00 |
| FC(F)(F)Oc1cccc(-c2nc(-c3ccc4c(c3)nnn4C3CCCC3)no2)c1 | human sphingosine-1-phosphate receptor 1 (S1P1) (Homo sapiens) | < 5.00 |

###

Biological target: human sphingosine-1-phosphate receptor 1 (S1P1) (Homo sapiens)
Assay: β-Arrestin2 recruitment assay (PathHunter), S1P1 CHO-K1 cells
Type: cell-based
Settings: CHO-K1; efficacy normalized to maximum efficacy of fingolimod; read-out: hS1P1 B-arrestin2 SPAN
A collection of compounds and their measured Emax

| Compound | System Under Test | Emax |
| --- | --- | --- |
| CCC1(CC)CC(=O)c2cc(-c3nc(-c4ccnc(NS(C)(=O)=O)c4)no3)ccc2O1 [Compound 556] | human sphingosine-1-phosphate receptor 1 (S1P1) (Homo sapiens) | < 75% |
| Cc1ccccc1-c1nsc(-c2ccc3c(ccn3C(C)C)c2)n1 [Compound 381] | human sphingosine-1-phosphate receptor 1 (S1P1) (Homo sapiens) | < 75% |
| CC(C)n1nnc2cc(-c3nc(-c4ccccc4Br)no3)cnc21 [Compound 413] | human sphingosine-1-phosphate receptor 1 (S1P1) (Homo sapiens) | > 75% |
| Cc1cccc2oc(-c3ccc4c(c3)nnn4CC(C)C)nc12 [Compound 447] | human sphingosine-1-phosphate receptor 1 (S1P1) (Homo sapiens) | < 75% |
| CC(C)n1nnc2cc(-c3noc(-c4cccc5c4CCC5=O)n3)ccc21 [Compound 608] | human sphingosine-1-phosphate receptor 1 (S1P1) (Homo sapiens) | > 75% |
| COc1ccccc1-c1noc(-c2ccc3c(c2)ncn3C(C)C)n1 [Compound 373] | human sphingosine-1-phosphate receptor 1 (S1P1) (Homo sapiens) | > 75% |
| CCCC1CC(=O)c2ccc(-c3nc(-c4cccnc4)no3)cc2O1 (stereo not drawn) [Compound 630] | human sphingosine-1-phosphate receptor 1 (S1P1) (Homo sapiens) | < 75% |
| CCC1(CC)CC(=O)c2cc(-c3nc(-c4ccc5ncccc5c4)no3)ccc2O1 [Compound 521] | human sphingosine-1-phosphate receptor 1 (S1P1) (Homo sapiens) | < 75% |
| CCC1(CC)CC(=O)c2cc(-c3nc(-c4cnccc4C)no3)ccc2O1 [Compound 549] | human sphingosine-1-phosphate receptor 1 (S1P1) (Homo sapiens) | > 75% |

###

Target: human sphingosine-1-phosphate receptor 1 (S1P1) (Homo sapiens)
Assay: Inhibition of cAMP production (HTRF cAMP HiRange), S1P1 CHO-K1 cells
Assay type: cell-based
Conditions: inhibition of cAMP production, S1P1; read-out: hS1P1 CAMP pEC50 (converted)
Sequence (P21453 whole entry): as the sequence (P21453 whole entry) above

| Given Smiles | EC50 |
| --- | --- |
| CC(C)n1nnc2cc(-c3nc(-c4ccccc4C(F)(F)F)co3)ccc21 | < 316 nM |
| COCC1(COC)CC(=O)c2cc(-c3nc(-c4ccncc4)no3)ccc2O1 | > 316 nM |
| COc1ccccc1-c1nc(-c2ccc3c(c2)nnn3C(C)C)co1 | < 316 nM |
| COc1ccc(-c2nc(-c3ccc4c(ccn4C(C)C)c3)no2)cc1 | > 316 nM |
| Cc1ccccc1-c1nc(-c2ccc3c(c2)nnn3CC(C)(C)CO)no1 | > 316 nM |
